# target.entity: T1, Pla1 poly(A) polymerase wild-type (Schizosaccharomyces pombe (fission …, UniProt Q10295 1-566))
# T1 sequence: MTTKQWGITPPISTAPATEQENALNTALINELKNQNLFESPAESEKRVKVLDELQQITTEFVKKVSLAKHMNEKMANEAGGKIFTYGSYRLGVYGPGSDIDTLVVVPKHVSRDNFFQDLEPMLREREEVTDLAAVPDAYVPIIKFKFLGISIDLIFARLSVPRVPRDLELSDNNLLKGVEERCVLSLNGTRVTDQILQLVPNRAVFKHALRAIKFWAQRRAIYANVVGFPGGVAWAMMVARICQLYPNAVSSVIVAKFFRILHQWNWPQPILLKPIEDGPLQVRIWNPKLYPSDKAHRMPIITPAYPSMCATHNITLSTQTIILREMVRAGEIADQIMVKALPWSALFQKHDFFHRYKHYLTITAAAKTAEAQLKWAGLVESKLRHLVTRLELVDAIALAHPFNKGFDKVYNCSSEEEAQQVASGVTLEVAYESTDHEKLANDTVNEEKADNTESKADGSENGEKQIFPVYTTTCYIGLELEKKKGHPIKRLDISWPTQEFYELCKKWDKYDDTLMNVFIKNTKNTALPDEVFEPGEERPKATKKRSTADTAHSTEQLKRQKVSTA
# procedure.details: fluorescence polarization
pKd: −log10 of the molar value.
quantity.measured: pKd

Task: Record request: pKd value, item UUUCUGUGGCUA (ssRNA) [12-mer RNA primer]
Result: ~6.34
